IC50 overview
Molecular target: BSEP (UniProt O95342, species not given)
Construct: rows headed: BSEP
Assay: BSEP cell-free transport assay
Assay type: biochemical, Rat or human
Settings: BSEP cell-free transport assay (GenoMembrane); Table 2; number or Y/N for inhibition, unit inferred
Method: Rat or human BSEP cell-free assay were performed according to GenoMembrane protocol for BSEP transport analysis.
endpointName: IC50

molecule="CN(CCOc1ccc(CC2SC(=O)NC2=O)cc1)c1ccccn1 (centres unmarked)" obsvalue="8 µM"
molecule="CCc1ccc(CCOc2ccc(CC3SC(=O)NC3=O)cc2)nc1 (centres unmarked)" obsvalue="5 µM"

* * *

system: CYP3A; assay: Inhibition of CYP3A; type: in vitro ADME; settings: Table 2; number or Y/N, unit inferred
pIC50: −log10 of the molar value.
endpointName: pIC50

compound="CCC(C)n1ncn(-c2ccc(N3CCN(c4ccc(OCC5COC(Cn6cncn6)(c6ccc(Cl)cc6Cl)O5)cc4)CC3)cc2)c1=O (stereo not shown)" obsvalue=5.64
